assay: Cytotoxicity against human PBMC by MTT assay; type: cell-based
Under this convention, TRUE denotes CC50 strictly below 90 µM and FALSE denotes CC50 at or above 90 µM.

These recorded examples may help you get a feel for the data.
- SMILES_RECORD: "Cc1csc(-c2nc(COc3c4cc(CC(=O)[O-])cc3Cc3cc(CC(=O)[O-])cc(c3O)Cc3cc(CC(=O)[O-])cc(c3OCc3csc(-c5nc(C)cs5)n3)Cc3cc(CC(=O)[O-])cc(c3O)C4)cs2)n1.[Na+].[Na+].[Na+].[Na+]"
  CLASS: "FALSE"
- SMILES_RECORD: "O=C([O-])Cc1cc2c(O)c(c1)Cc1cc(CC(=O)[O-])cc(c1O)Cc1cc(CC(=O)[O-])cc(c1O)Cc1cc(CC(=O)[O-])cc(c1O)C2.[Na+].[Na+].[Na+].[Na+]"
  CLASS: "FALSE"
- SMILES_RECORD: "Cc1cn([C@H]2C[C@H](N=[N+]=[N-])[C@@H](CO)O2)c(=O)[nH]c1=O"
  CLASS: "TRUE"
- SMILES_RECORD: "O=S(=O)([O-])c1cc2c(O)c(c1)Cc1cc(S(=O)(=O)[O-])cc(c1O)Cc1cc(S(=O)(=O)[O-])cc(c1O)Cc1cc(S(=O)(=O)[O-])cc(c1O)C2.[Na+].[Na+].[Na+].[Na+]"
  CLASS: "FALSE"
- SMILES_RECORD: "Cc1nc(-c2nc(COc3c4cc(CC(=O)[O-])cc3Cc3cc(CC(=O)[O-])cc(c3O)Cc3cc(CC(=O)[O-])cc(c3OCc3nc(-c5nc(C)c(C(=O)[O-])s5)sc3C(=O)[O-])Cc3cc(CC(=O)[O-])cc(c3O)C4)c(C(=O)[O-])s2)sc1C(=O)[O-].[Na+].[Na+].[Na+].[Na+].[Na+].[Na+].[Na+].[Na+]"
  CLASS: "TRUE"

Challenge: Quick check: does O=P([O-])(O)Cc1cc2c(O)c(c1)Cc1cc(CP(=O)([O-])O)cc(c1O)Cc1cc(CP(=O)([O-])O)cc(c1O)Cc1cc(CP(=O)([O-])O)cc(c1O)C2.[Na+].[Na+].[Na+].[Na+] have CC50 under 90 µM?
Response given: TRUE

###

assay: Selectivity index, ratio of CC50 for human CEM-SS cells to IC50 for HIV1 LAI infected in human CEM-SS cells; type: functional
QUANTITY_NAME: Ratio CC50/IC50

Challenge: Could you share which Ratio CC50/IC50 value was measured for Cc1csc(-c2nc(COc3c4cc(CC(=O)[O-])cc3Cc3cc(CC(=O)[O-])cc(c3O)Cc3cc(CC(=O)[O-])cc(c3OCc3csc(-c5nc(C)cs5)n3)Cc3cc(CC(=O)[O-])cc(c3O)C4)cs2)n1.[Na+].[Na+].[Na+].[Na+] ?
Response given: >36

Challenge: Field entry: Cc1nc(-c2nc(COc3c4cc(CC(=O)[O-])cc3Cc3cc(CC(=O)[O-])cc(c3O)Cc3cc(CC(=O)[O-])cc(c3OCc3nc(-c5nc(C)c(C(=O)[O-])s5)sc3C(=O)[O-])Cc3cc(CC(=O)[O-])cc(c3O)C4)c(C(=O)[O-])s2)sc1C(=O)[O-].[Na+].[Na+].[Na+].[Na+].[Na+].[Na+].[Na+].[Na+]
Response given: >26

Challenge: Field entry: O=C([O-])Cc1cc2c(O)c(c1)Cc1cc(CC(=O)[O-])cc(c1O)Cc1cc(CC(=O)[O-])cc(c1O)Cc1cc(CC(=O)[O-])cc(c1O)C2.[Na+].[Na+].[Na+].[Na+]
Response given: >1.2

Challenge: Field entry: Cc1csc(-c2nc(COc3c4cc(CP(=O)([O-])O)cc3Cc3cc(CP(=O)([O-])O)cc(c3O)Cc3cc(CP(=O)([O-])O)cc(c3OCc3csc(-c5nc(C)cs5)n3)Cc3cc(CP(=O)([O-])O)cc(c3O)C4)cs2)n1.[Na+].[Na+].[Na+].[Na+]
Response given: >6

Challenge: Field entry: O=S(=O)([O-])c1cc2c(O)c(c1)Cc1cc(S(=O)(=O)[O-])cc(c1O)Cc1cc(S(=O)(=O)[O-])cc(c1O)Cc1cc(S(=O)(=O)[O-])cc(c1O)C2.[Na+].[Na+].[Na+].[Na+]
Response given: >1.2

###

test system: Human immunodeficiency virus 1; assay: Antiviral activity against HIV1 BaL infected in human PBMC assessed as inhibition of viral replication by reverse transcriptase activity measurement; conditions: Human immunodeficiency virus 1, BaL
Items are presented alongside their recorded pIC50.
Here pIC50 is given on a logarithmic scale as minus log10 of the concentration in mol/L.

Recorded results for 3 compounds are shown here.
- SMILES_RECORD: "O=P([O-])(O)Cc1cc2c(O)c(c1)Cc1cc(CP(=O)([O-])O)cc(c1O)Cc1cc(CP(=O)([O-])O)cc(c1O)Cc1cc(CP(=O)([O-])O)cc(c1O)C2.[Na+].[Na+].[Na+].[Na+]"
  pIC50: 4.15
- SMILES_RECORD: "Cc1csc(-c2nc(COc3c4cc(CC(=O)[O-])cc3Cc3cc(CC(=O)[O-])cc(c3O)Cc3cc(CC(=O)[O-])cc(c3OCc3csc(-c5nc(C)cs5)n3)Cc3cc(CC(=O)[O-])cc(c3O)C4)cs2)n1.[Na+].[Na+].[Na+].[Na+]"
  pIC50: 4.56
- SMILES_RECORD: "Cc1csc(-c2nc(COc3c4cc(CP(=O)([O-])O)cc3Cc3cc(CP(=O)([O-])O)cc(c3O)Cc3cc(CP(=O)([O-])O)cc(c3OCc3csc(-c5nc(C)cs5)n3)Cc3cc(CP(=O)([O-])O)cc(c3O)C4)cs2)n1.[Na+].[Na+].[Na+].[Na+]"
  pIC50: 4.24

Challenge: Could you share which pIC50 value was measured for O=S(=O)([O-])c1cc2c(O)c(c1)Cc1cc(S(=O)(=O)[O-])cc(c1O)Cc1cc(S(=O)(=O)[O-])cc(c1O)Cc1cc(S(=O)(=O)[O-])cc(c1O)C2.[Na+].[Na+].[Na+].[Na+] ?
Response given: 4.35

Challenge: Field entry: Cc1cn([C@H]2C[C@H](N=[N+]=[N-])[C@@H](CO)O2)c(=O)[nH]c1=O
Response given: 8.11

Challenge: Field entry: O=C([O-])Cc1cc2c(O)c(c1)Cc1cc(CC(=O)[O-])cc(c1O)Cc1cc(CC(=O)[O-])cc(c1O)Cc1cc(CC(=O)[O-])cc(c1O)C2.[Na+].[Na+].[Na+].[Na+]
Response given: 5.02

###

assay: Cytotoxicity against human MT4 cells by MTT assay; format: cell-based
Items are presented alongside their recorded CC50.

Recorded results for 3 compounds are shown here.
- SMILES_RECORD: "O=S(=O)([O-])c1cc2c(O)c(c1)Cc1cc(S(=O)(=O)[O-])cc(c1O)Cc1cc(S(=O)(=O)[O-])cc(c1O)Cc1cc(S(=O)(=O)[O-])cc(c1O)C2.[Na+].[Na+].[Na+].[Na+]"
  CC50: "> 100 µM"
- SMILES_RECORD: "Cc1csc(-c2nc(COc3c4cc(CP(=O)([O-])O)cc3Cc3cc(CP(=O)([O-])O)cc(c3O)Cc3cc(CP(=O)([O-])O)cc(c3OCc3csc(-c5nc(C)cs5)n3)Cc3cc(CP(=O)([O-])O)cc(c3O)C4)cs2)n1.[Na+].[Na+].[Na+].[Na+]"
  CC50: "> 100 µM"
- SMILES_RECORD: "Cc1csc(-c2nc(COc3c4cc(CC(=O)[O-])cc3Cc3cc(CC(=O)[O-])cc(c3O)Cc3cc(CC(=O)[O-])cc(c3OCc3csc(-c5nc(C)cs5)n3)Cc3cc(CC(=O)[O-])cc(c3O)C4)cs2)n1.[Na+].[Na+].[Na+].[Na+]"
  CC50: "> 1000 µM"

Now let's try a different one.
Challenge: Could you share which CC50 value was measured for Cc1cn([C@H]2C[C@H](N=[N+]=[N-])[C@@H](CO)O2)c(=O)[nH]c1=O ?
Response given: > 100 µM
